TEST_SYSTEM: MRP4 (ATP-binding cassette sub-family C member 4) (Homo sapiens)
Sequence (O15439 whole entry): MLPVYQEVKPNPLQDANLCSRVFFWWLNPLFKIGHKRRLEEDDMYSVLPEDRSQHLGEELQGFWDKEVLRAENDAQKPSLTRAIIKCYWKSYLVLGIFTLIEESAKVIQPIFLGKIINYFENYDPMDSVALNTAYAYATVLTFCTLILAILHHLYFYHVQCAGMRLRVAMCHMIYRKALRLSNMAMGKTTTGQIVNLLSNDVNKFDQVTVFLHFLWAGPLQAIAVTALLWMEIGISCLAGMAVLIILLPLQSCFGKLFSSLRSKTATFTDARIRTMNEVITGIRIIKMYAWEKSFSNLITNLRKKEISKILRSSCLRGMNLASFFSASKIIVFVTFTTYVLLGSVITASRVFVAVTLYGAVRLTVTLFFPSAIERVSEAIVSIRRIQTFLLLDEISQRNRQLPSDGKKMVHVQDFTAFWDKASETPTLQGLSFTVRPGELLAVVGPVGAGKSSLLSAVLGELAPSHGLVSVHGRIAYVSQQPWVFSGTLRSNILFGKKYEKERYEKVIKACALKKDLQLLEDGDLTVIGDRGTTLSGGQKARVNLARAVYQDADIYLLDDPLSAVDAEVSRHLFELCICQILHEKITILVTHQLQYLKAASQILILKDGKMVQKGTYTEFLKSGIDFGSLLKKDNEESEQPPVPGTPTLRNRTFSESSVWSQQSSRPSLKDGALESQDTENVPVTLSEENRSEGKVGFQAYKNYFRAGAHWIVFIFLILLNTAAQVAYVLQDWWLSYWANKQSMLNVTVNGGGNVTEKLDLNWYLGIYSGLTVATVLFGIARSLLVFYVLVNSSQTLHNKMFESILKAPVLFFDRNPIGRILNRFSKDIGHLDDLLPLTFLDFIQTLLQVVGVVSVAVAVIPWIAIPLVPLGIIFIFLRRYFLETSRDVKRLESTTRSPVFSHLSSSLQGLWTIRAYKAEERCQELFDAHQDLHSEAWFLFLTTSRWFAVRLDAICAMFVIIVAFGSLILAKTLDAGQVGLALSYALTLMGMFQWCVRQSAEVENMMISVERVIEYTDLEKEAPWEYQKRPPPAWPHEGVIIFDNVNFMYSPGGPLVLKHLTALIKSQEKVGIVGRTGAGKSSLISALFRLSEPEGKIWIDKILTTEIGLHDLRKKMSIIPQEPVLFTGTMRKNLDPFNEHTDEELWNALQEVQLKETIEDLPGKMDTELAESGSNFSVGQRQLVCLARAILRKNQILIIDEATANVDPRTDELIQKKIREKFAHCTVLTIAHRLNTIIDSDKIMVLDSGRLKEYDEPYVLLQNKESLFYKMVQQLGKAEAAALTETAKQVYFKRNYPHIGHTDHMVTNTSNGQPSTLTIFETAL
EXPERIMENTAL_DETAILS: TP_TRANSPORTER: inhibition of MTX uptake (MTX: 20 uM, Sildenafil: 10 uM) in membrane vesicles from MRP4-expressing Sf9 cells
Type: functional, cell membranes, Membrane vesicle
Set-up: scale not given: the % may be the effect or the level left
CONDITION_LABEL: probe MTX (20 uM), read-out: Activity
MEASURE_NAME: activity at 10 µM (%)
Provide only the numeric value, understood in %.

[Q] Return reported activity at 10 µM; argument: `CCCc1nn(C)c2c(=O)[nH]c(-c3cc(S(=O)(=O)N4CCN(C)CC4)ccc3OCC)nc12`
[A] 46
